B1: LINE1-mini (parent)
chain: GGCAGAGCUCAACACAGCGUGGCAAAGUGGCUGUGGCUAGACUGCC

Variants of: B1
Assay: self-cleavage, relative activity (ratio to wild type); higher = more cleavage; in vitro, sequencing; the parent is a self-cleaving ribozyme
Hi all, reminder that labels come from self-cleavage, split as c1 (below 0.09), c2 (0.09 to below 0.4), c3 (0.4 or more)

Sample answers from the record:
residue_string="GGCAGAGAUCAAGACAGCGUGGCAAAGUGGCUGUGGCUAGACUGCC [C8A C13G]" class_assignment=c2
residue_string="GUCAGAGCGCAACACAGCGUGGCAAAGUGGCUGUGGCUAGACUGCC [G2U U9G]" class_assignment=c1
residue_string="GGCAGUGCUCAACACAGCGUGGCAAAAUGGCUGUGGCUAGACUGCC [A6U G27A]" class_assignment=c3
residue_string="GGCAGAUCUCAACACAGCGUGGCAAAGCGGCUGUGGCUAGACUGCC [G7U U28C]" class_assignment=c1
residue_string="GGCAGAGCACAACACAGCGUGGCAAUGUGGCUGUGGCUAGACUGCC [U9A A26U]" class_assignment=c2

Sort into band: AGCAGAGCUCAACACAGCGUGGGAAAGUGGCUGUGGCUAGACUGCC [G1A C23G]
c3

And the next one, GGCAGAGCUCAAGACAGCGUGGCAAAGUGGCUGUGGCUAGACUGUC [C13G C45U] ?
c2

And the next one, GGCAGAGCUCAACACAGCGUGGCAAAGUGGGUGUGGCUAGGCUGCC [C31G A41G] ?
c1

And the next one, GACAGAGCUCAACGCAGCGUGGCAAAGUGGCUGUGGCUAGACUGCC [G2A A14G] ?
c3
